# Test name: Stability in human liver microsomes
# Assay type: in vitro ADME
# Condition info: read-out: t1/2 Human LM
Each entry below carries its reported half-life.
The response must be a number in min with no trailing unit.

               smiles_representation  recorded_value
0  CCCn1c(=O)c2cc(F)ccc2n2c(SC)nnc12            14.4

Data point: `CCCn1c(=O)c2ccccc2n2c(SC)nnc12` ; half-life = 16.8

---

# Test name: Stability in mouse liver microsomes
# Type: in vitro ADME
# Condition info: read-out: t1/2 Mouse LM
Each entry below carries its reported half-life.
The response must be a number in min with no trailing unit.

In [3]: df
Out[3]:
            smiles_representation  units_symbol  recorded_value
0  CCCn1c(=O)c2ccccc2n2c(SC)nnc12           min            3.77

Next compound, please.
Data point: `CCCn1c(=O)c2cc(F)ccc2n2c(SC)nnc12` ; half-life = 10.6

---

# Test name: Microsomal metabolic stability, rat liver microsomes (RLM)
# Condition info: rat liver microsomes
Measured property: half-life

Data point: `CCCn1c(=O)c2ccccc2n2c(=S)[nH]nc12` ; half-life = > 30 min

---

# Test name: Microsomal metabolic stability, rat liver microsomes (RLM)
# Condition info: rat liver microsomes
Each entry below carries its reported t1/2 (min, RLM).

                                   molecule  recorded_value
0  O=c1c2cc(F)ccc2n2c(=S)[nH]nc2n1CCC(F)(F)F [compound 65]         >30 min

Data point: O=C(Cc1ccccn1)NCCCn1c(=O)c2cc(F)ccc2n2c(=S)[nH]nc12 [compound 136] ; t1/2 (min, RLM) = >30 min

Data point: O=c1c2ccccc2n2c(=S)[nH]nc2n1CCC(F)(F)F [compound 27] ; t1/2 (min, RLM) = >30, min

Data point: O=c1c2cc(F)ccc2n2c(=S)[nH]nc2n1CCN1CCOCC1 [compound 90] ; t1/2 (min, RLM) = >30 min

Data point: NCCn1c(=O)c2cc(F)ccc2n2c(=S)[nH]nc12 [compound 67] ; t1/2 (min, RLM) = >30 min

Data point: O=C(NCCCn1c(=O)c2cc(F)ccc2n2c(=S)[nH]nc12)c1ccccc1 [compound 74] ; t1/2 (min, RLM) = >30 min

Data point: O=C(Cc1ccc(F)cc1)NCCCn1c(=O)c2cc(F)ccc2n2c(=S)[nH]nc12 [compound 123] ; t1/2 (min, RLM) = 26.3 min

---

# Test name: Aqueous solubility
# Condition info: aqueous solubility
Measured property: Solub. (µg/mL)
The response must be a number in µg/mL with no trailing unit.

>>> df
                      smiles_representation  measured_property  units_symbol  recorded_value
0  O=C(Cc1ccncc1)NCCCn1c(=O)c2cc(F)ccc2n2c(=S)[nH]nc12             Solub.         µg/mL             9.6
1  CC(C)(C)OC(=O)N1CCN(CCn2c(=O)c3cc(F)ccc3n3c(=S)[nH]nc23)CC1             Solub.         µg/mL            20.5

Data point: `CC(C)CCn1c(=O)c2ccccc2n2c(=S)[nH]nc12` ; Solub. = 8.0

Data point: `O=C(Cc1ccccc1C(F)(F)F)NCCCn1c(=O)c2cc(F)ccc2n2c(=S)[nH]nc12` ; Solub. = 40.3

Data point: `O=C(NCCCn1c(=O)c2cc(F)ccc2n2c(=S)[nH]nc12)c1ccc(Cn2ccnc2)cc1` ; Solub. = 13.7
